Origin of measurements: patent US20250163104A1

pIC50 reference
biological target: human PD-1 / PD-L1-Ig binding on Jurkat cell line over-expressing human PD-1 (Jurkat-PD-1) (Homo sapiens, UniProt Q15116); construct: expressed in transfected cells; host or cells: Jurkat; test: Jurkat-PD-1 Cell Binding High-Content Screening Assay (CBA); type: cell-based; conditions: Jurkat-PD-1 cells, PE-labeled PD-L1-Ig 20 nM final; read-out: Jurkat HPD1_PDL1 IC50
Sequence (Q15116 25-288): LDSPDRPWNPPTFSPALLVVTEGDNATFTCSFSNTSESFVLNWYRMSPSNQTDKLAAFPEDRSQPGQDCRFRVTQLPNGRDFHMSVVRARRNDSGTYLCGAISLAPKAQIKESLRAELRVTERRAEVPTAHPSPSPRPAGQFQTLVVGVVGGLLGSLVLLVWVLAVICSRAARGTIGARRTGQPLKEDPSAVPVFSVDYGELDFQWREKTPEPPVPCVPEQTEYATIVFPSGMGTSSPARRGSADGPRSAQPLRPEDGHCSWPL
Where a SMILES comes first, the peptide text is derived from it. Bridges are numbered along the chain shown (N, C = ends). [ ]: non-standard residue; d: D form. Bip = N[C@@H](Cc1ccc(-c2ccccc2)cc1)C(=O)O; Orn = NCCC[C@H](N)C(=O)O; Dab = NCC[C@H](N)C(=O)O
Interpret pIC50 as the negative base-10 log of the concentration measured in mol/L.

CC(C)C[C@H]1NC(=O)[C@H](CCCN)NC(=O)[C@H](CCC(=O)O)NC(=O)[C@H](Cc2ccc(-c3ccccc3)cc2)NC(=O)[C@H](C(C)C)NC(=O)[C@H](Cc2c[nH]c3ccccc23)NC(=O)[C@H](CC(=O)O)NC(=O)[C@H](Cc2ccc(OCC(=O)O)cc2)NC(=O)[C@H](CN)NC(=O)CSC[C@@H](C(=O)N[C@@H](C)C(N)=O)NC(=O)[C@H]([C@@H](C)O)NC(=O)[C@H](C(C)C)NC(=O)[C@H](Cc2cc(F)c(F)cc2F)NC(=O)[C@H](CCN)NC1=O
6.84
CC(C)C[C@@H]1NC(=O)[C@H](CCCCN)NC(=O)[C@@H](CC(C)C)NC(=O)[C@H](CCCN)NC(=O)[C@H](Cc2cnc[nH]2)NC(=O)[C@H](Cc2ccc(-c3ccccc3)cc2)NC(=O)[C@H](C(C)C)NC(=O)[C@H](Cc2c[nH]c3ccccc23)NC(=O)[C@H](CC(=O)O)NC(=O)[C@H](Cc2ccc(O)cc2)NC(=O)[C@H](CC(N)=O)NC(=O)CSC[C@@H](C(=O)NCC(N)=O)NC(=O)[C@H](CO)NC(=O)[C@H](C(C)C)NC1=O [Compound 1135] ({CH2CO}-NYDWV[Bip]H[Orn][dL]KLVSCG-NH2; thioether N-14)
7.89
CC(C)C[C@H]1NC(=O)[C@H](CCCN)NC(=O)[C@H](C(C)C)NC(=O)[C@H](Cc2ccc(-c3ccccc3)cc2)NC(=O)[C@H](C(C)C)NC(=O)[C@H](Cc2cccc(C(F)(F)F)c2)NC(=O)[C@H](CC(=O)O)NC(=O)[C@H](Cc2ccc(C(=O)O)cc2)NC(=O)[C@H](Cc2ccc(OCC(=O)O)cc2)NC(=O)CSC[C@@H](C(=O)N[C@@H](C)C(N)=O)NC(=O)[C@H]([C@@H](C)O)NC(=O)[C@H](C(C)C)NC(=O)[C@H](CC2CCCCC2)NC(=O)[C@H](CCN)NC1=O
7.77
CC(C)C[C@H]1NC(=O)[C@H](CCCN)NC(=O)[C@H](CCC(=O)O)NC(=O)[C@H](Cc2ccc(-c3ccccc3)cc2)NC(=O)[C@H](C(C)C)NC(=O)[C@H](Cc2cccc(C(F)(F)F)c2)NC(=O)[C@H](CC(=O)O)NC(=O)[C@H](Cc2ccc(OCC(=O)O)cc2)NC(=O)[C@H](Cc2cccnc2)NC(=O)CSC[C@@H](C(=O)N[C@@H](C)C(N)=O)NC(=O)[C@H]([C@@H](C)O)NC(=O)[C@H](C(C)C)NC(=O)[C@H](CC2CCCCC2)NC(=O)[C@H](CCN)NC1=O
7.77
CCC(C)[C@@H]1NC(=O)[C@H](Cc2ccc(-c3ccccc3)cc2)NC(=O)[C@H](C(C)C)NC(=O)[C@H](Cc2cccc(C)c2C)NC(=O)[C@H](CC(=O)O)NC(=O)[C@H](Cc2ccc(OCC(=O)O)cc2)NC(=O)[C@H](CN)NC(=O)CSC[C@@H](C(=O)N[C@@H](C)C(N)=O)NC(=O)[C@H]([C@@H](C)O)NC(=O)[C@H](C(C)C)NC(=O)[C@H](CC2CCCCC2)NC(=O)[C@H](CCN)NC(=O)[C@@H](CC(C)C)NC(=O)[C@H](CCCN)NC1=O (some centres unmarked)
7.99

// fetch pIC50 given entry "CC[C@H](C)[C@@H]1NC(=O)[C@H](Cc2ccc(-c3ccccc3)cc2)NC(=O)[C@H](C(C)C)NC(=O)[C@H](Cc2cccc(C)c2)NC(=O)[C@H](CC(=O)O)NC(=O)[C@H](Cc2ccc(C(=O)O)cc2)NC(=O)[C@H](Cc2ccncc2)NC(=O)CSC[C@@H](C(=O)N[C@@H](C)C(N)=O)NC(=O)[C@H]([C@@H](C)O)NC(=O)[C@H](C(C)C)NC(=O)[C@H](CC(C)C)NC(=O)[C@H](CCN)NC(=O)[C@@H](CC(C)C)NC(=O)[C@H](CCCN)NC1=O"
8.05

// fetch pIC50 given entry CC[C@H](C)[C@@H]1NC(=O)[C@H](Cc2ccc(-c3ccccc3)cc2)NC(=O)[C@H](C(C)C)NC(=O)[C@H](Cc2c[nH]c3ccccc23)NC(=O)[C@H](CC(=O)O)NC(=O)[C@H](Cc2ccc(O)cc2)NC(=O)[C@H](CC(N)=O)NC(=O)CSC[C@@H](C(=O)N[C@@H](C)C(N)=O)NC(=O)[C@H]([C@@H](C)O)NC(=O)[C@H](C(C)C)NC(=O)[C@H](CC(C)C)NC(=O)[C@H](CCN)NC(=O)[C@@H](CC(C)C)NC(=O)[C@H](CCCN)NC1=O [Compound 1038] ({CH2CO}-NYDWV[Bip]I[Orn][dL][Dab]LVTCA-NH2; thioether N-14)
8.15

// fetch pIC50 given entry CC(C)C[C@@H]1NC(=O)[C@H](Cc2c[nH]c3ccccc23)NC(=O)[C@H](CC(=O)O)NC(=O)[C@H](Cc2ccc(O)cc2)NC(=O)[C@H](Cc2ccccc2)NC(=O)CSC[C@@H](C(=O)N[C@@H](C)C(N)=O)NC(=O)[C@H]([C@@H](C)O)NC(=O)[C@H](C(C)C)NC(=O)[C@H](CC(C)C)NC(=O)[C@H](CC(N)=O)NC(=O)[C@@H](CC(C)C)NC(=O)[C@H](CCN)NC(=O)[C@H](C(C)C)NC(=O)[C@H](Cc2ccc(-c3ccccc3)cc2)NC1=O [Compound 1058] ({CH2CO}-FYDWL[Bip]V[Dab][dL]NLVTCA-NH2; thioether N-14)
7.74

====

target: human PD-1 / PD-L1-Ig binding on Jurkat cell line over-expressing human PD-1 (Jurkat-PD-1) (Homo sapiens, UniProt Q15116); construct: expressed in transfected cells; host or cells: Jurkat; experiment: Jurkat-PD-1 Cell Binding High-Content Screening Assay (CBA); assay type: cell-based; details: Jurkat-PD-1 cells, PE-labeled PD-L1-Ig 20 nM final; read-out: Jurkat HPD1_PDL1 IC50
Where a SMILES comes first, the peptide text is derived from it. Bridges are numbered along the chain shown (N, C = ends). [ ]: non-standard residue; d: D form. Bip = N[C@@H](Cc1ccc(-c2ccccc2)cc1)C(=O)O; Orn = NCCC[C@H](N)C(=O)O
assay.metric: IC50 (nM)
Give the value, in units of nM, as a plain number.

CC(C)C[C@@H]1NC(=O)[C@H](CCCNC(=N)N)NC(=O)[C@@H](CC(C)C)NC(=O)[C@H](CCCCN)NC(=O)[C@H](CCCNC(=N)N)NC(=O)[C@H](Cc2ccc(-c3ccccc3)cc2)NC(=O)[C@H](C(C)C)NC(=O)[C@H](Cc2c[nH]c3ccccc23)NC(=O)[C@H](CC(=O)O)NC(=O)[C@H](Cc2ccc(O)cc2)NC(=O)[C@H](CC(N)=O)NC(=O)CSC[C@@H](C(=O)N[C@@H](C)C(N)=O)NC(=O)[C@H]([C@@H](C)O)NC(=O)[C@H](C(C)C)NC1=O [Compound 1007] ({CH2CO}-NYDWV[Bip]RK[dL]RLVTCA-NH2; thioether N-14)
45.3

We now examine a further compound.
// fetch IC50 given entry CC[C@H](C)[C@@H]1NC(=O)[C@H](Cc2ccc(-c3ccccc3)cc2)NC(=O)[C@H](C(C)C)NC(=O)[C@H](Cc2c[nH]c3ccccc23)NC(=O)[C@H](CC(=O)O)NC(=O)[C@H](Cc2ccc(O)cc2)NC(=O)[C@H](CC(N)=O)NC(=O)CSC[C@@H](C(=O)N[C@@H](C)C(N)=O)NC(=O)[C@H]([C@@H](C)O)NC(=O)[C@H](C(C)C)NC(=O)[C@H](CC(C)C)NC(=O)[C@H](CCCCN)NC(=O)[C@@H](CC(C)C)NC(=O)[C@H](CCCN)NC1=O [Compound 1129] ({CH2CO}-NYDWV[Bip]I[Orn][dL]KLVTCA-NH2; thioether N-14)
19.7
